Data origin, for the record: patent US8846741B2

target: MDR1 (P-gp) (Homo sapiens (Human)); experiment: Efflux ratio in MDR1-MDCK bidirectional transport; assay type: in vitro ADME; conditions: dog; MDR1-MDCK cell monolayers, 1 μM in HBSS-pH 7.4, 1 h incubation at 37 C
Sequence (P08183 whole entry, species assumed): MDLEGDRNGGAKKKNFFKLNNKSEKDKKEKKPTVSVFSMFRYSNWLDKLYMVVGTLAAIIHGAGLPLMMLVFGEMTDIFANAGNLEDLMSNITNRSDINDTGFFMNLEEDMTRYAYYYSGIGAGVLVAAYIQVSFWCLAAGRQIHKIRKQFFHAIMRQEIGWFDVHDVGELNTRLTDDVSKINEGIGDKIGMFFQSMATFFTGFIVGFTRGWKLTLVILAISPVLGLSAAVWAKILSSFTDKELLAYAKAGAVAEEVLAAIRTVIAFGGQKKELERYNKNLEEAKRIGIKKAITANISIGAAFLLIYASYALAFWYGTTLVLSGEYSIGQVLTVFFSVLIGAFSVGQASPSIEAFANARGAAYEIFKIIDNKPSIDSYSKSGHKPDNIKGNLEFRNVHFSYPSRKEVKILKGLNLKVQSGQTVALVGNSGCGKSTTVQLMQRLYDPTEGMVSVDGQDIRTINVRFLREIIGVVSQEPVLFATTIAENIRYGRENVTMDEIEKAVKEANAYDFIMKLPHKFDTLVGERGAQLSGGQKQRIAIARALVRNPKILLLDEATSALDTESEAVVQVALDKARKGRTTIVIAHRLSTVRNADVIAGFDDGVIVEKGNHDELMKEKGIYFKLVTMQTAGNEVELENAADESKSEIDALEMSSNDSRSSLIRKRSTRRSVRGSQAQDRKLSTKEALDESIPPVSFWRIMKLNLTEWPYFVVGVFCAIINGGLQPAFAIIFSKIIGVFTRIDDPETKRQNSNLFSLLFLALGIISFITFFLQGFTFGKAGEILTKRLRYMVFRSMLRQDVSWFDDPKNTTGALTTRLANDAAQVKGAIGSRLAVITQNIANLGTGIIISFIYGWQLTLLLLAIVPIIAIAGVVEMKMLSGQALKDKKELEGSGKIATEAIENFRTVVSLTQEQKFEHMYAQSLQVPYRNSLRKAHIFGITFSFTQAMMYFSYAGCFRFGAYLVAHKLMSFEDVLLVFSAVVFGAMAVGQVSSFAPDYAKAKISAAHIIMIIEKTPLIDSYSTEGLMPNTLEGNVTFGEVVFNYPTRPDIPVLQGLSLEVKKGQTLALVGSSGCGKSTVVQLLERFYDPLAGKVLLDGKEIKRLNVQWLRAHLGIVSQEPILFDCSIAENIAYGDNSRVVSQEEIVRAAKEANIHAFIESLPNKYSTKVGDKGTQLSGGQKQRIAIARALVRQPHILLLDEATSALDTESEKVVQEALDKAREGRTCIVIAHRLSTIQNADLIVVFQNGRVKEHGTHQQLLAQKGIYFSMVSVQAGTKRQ
measured-quantity: efflux ratio at 1 h, 1 μM

compound	efflux ratio at 1 h, 1 μM
N#CC1(NC2CCc3ccc(CNS(=O)(=O)CC4CC4)cc3C2Cc2ccccc2)COC1 (centres unmarked) [Example 9]	3.5
Cn1cnc(S(=O)(=O)NCc2ccc3c(c2)C(Cc2ccccc2)C(N2CC4CC4C2)CC3)c1.O=C(O)/C=C/C(=O)O (centres unmarked) [Example 1]	3.2
